# Assay info: CD spectroscopy, mean residue ellipticity of the sixteen scaffold polypeptides
# Assay type: physicochemical
# Test parameters: high concentration 30-230 μM as listed per peptide; error ±1000
Please provide measured [θ]222 at high concentration for the entries that follow.
One number for each entry, in deg cm^2 dmol^−1.

4-C15L8: SEQ ID NO: 4 NAADLEAKIRHLREKLAARGPRDAAQLAEQLARRFERFARAG	−22000
1-C10L17: SEQ ID NO: 5 NAADLEAAIKHLAEALKERGPEDCEQLAEQLARAFEAFARAG	−18200
2-C10L17: SEQ ID NO: 6 NAADLEAAIKHLAEALKARGPVDAAQLAEQLARAFEAFARAG	−23400
4-C25L22: SEQ ID NO: 12 NAADLEARIRHLRERLAARGPKDAKQLAEQLARAFERFARAG	−23700
1-C15L8: SEQ ID NO: 1 NEADLEAKIRHLAEKLEARGPEDAEQLAEQLARAFEAFARAG	−17800

For each of the items listed, what is its [θ]222 at high concentration?
1. 3-C15L8: SEQ ID NO: 3 NAADLEAKIRHLAEKLAARGPVDAAQLAEQLARRFEAFARAG
2. 2-C25L22: SEQ ID NO: 10 NEADLEAAIRHLAEALAARGPKDAKQLAEQLARAFEAFARAG
3. 3-C37L34: SEQ ID NO: 15 NAADLEAAIRHLAERLAARGPVDAAQLAEQLARKFEKFARAG

A:
1. −23400
2. −25000
3. −22500

###

# Assay info: CD spectroscopy, mean residue ellipticity of the sixteen scaffold polypeptides
# Assay type: physicochemical
# Test parameters: low concentration 1-5 μM as listed per peptide; error ±1000
# note: boundary value -20000 deg cm^2 dmol^−1 maps to FALSE; [θ]222 at low concentration below it maps to TRUE

Take a look at these entries with their results.
3-C25L22: SEQ ID NO: 11 NAADLEAAIRHLAERLAARGPKDAKQLAEQLARAFEAFARAG	TRUE
2-C15L8: SEQ ID NO: 2 NEADLEAKIRHLAEKLAARGPVDAAQLAEQLARAFEAFARAG	TRUE
1-C10L17: SEQ ID NO: 5 NAADLEAAIKHLAEALKERGPEDCEQLAEQLARAFEAFARAG	FALSE
2-C37L34: SEQ ID NO: 14 NAADLEAAIRHLAERLAARGPVDAAQLAEQLAAKFEKFARAG	TRUE

Q: Is [θ]222 at low concentration of 4-C10L17: SEQ ID NO: 8 NAADLEARIKHLRERLKARGPRDAAQLAEQLARAFERFARAG strictly below -20000 deg cm^2 dmol^−1?
A: FALSE

Q: I'd appreciate it if you could check whether 3-C10L17: SEQ ID NO: 7 NAADLEARIKHLAERLKARGPVDAAQLAEQLARAFEAFARAG has [θ]222 at low concentration smaller than -20000 deg cm^2 dmol^−1.
A: TRUE

Q: Find out if reported [θ]222 at low concentration for 2-C25L22: SEQ ID NO: 10 NEADLEAAIRHLAEALAARGPKDAKQLAEQLARAFEAFARAG is less than -20000 deg cm^2 dmol^−1
A: TRUE

Q: Is it true that [θ]222 at low concentration reported for 1-C15L8: SEQ ID NO: 1 NEADLEAKIRHLAEKLEARGPEDAEQLAEQLARAFEAFARAG is less than -20000 deg cm^2 dmol^−1?
A: TRUE

Q: Input 3-C37L34: SEQ ID NO: 15 NAADLEAAIRHLAERLAARGPVDAAQLAEQLARKFEKFARAG ; condition: [θ]222 at low concentration strictly below -20000 deg cm^2 dmol^−1. Does it hold?
A: TRUE

Q: API: query returns whether the substance falls strictly under -20000 deg cm^2 dmol^−1 in [θ]222 at low concentration. Query: 4-C25L22: SEQ ID NO: 12 NAADLEARIRHLRERLAARGPKDAKQLAEQLARAFERFARAG
A: FALSE
